study-system: HIV-1 HXB2 envelope glycoprotein (gp41 subunit, N-helix coiled-coil) (HIV-1 (HXB2), UniProt P04578 512-856)
Sequence (P04578 512-856): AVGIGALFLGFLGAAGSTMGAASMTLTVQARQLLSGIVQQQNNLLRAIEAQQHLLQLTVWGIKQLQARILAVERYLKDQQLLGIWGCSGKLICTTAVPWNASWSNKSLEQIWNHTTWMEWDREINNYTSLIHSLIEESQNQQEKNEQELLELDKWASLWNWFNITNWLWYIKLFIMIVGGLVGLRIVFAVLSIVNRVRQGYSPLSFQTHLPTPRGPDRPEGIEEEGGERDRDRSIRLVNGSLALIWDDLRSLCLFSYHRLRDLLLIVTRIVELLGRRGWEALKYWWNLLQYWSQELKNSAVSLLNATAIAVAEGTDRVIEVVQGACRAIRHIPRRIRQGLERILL
experiment-notes: cell-based or functional assay
Measured IC50 (nanomolar) virus entry values are reported for all entries that follow.
Provide the reading as a plain figure in nM.

Item Ac-WMEFDREINNYTSLIHSLIEESQNQQEKNEQELL-NH2 [C34 Trp^631→Phe] has what recorded IC50 (nanomolar) virus entry?
3.6
